tested on: WaGa; assay: qHTS assay to identify novel small-molecules to repurpose for Merkel cell carcinoma treatment (AID 1296009); conditions: MCC and control cell lines, CellTiter-Glo viability, 72 h; series mostly up to 46 µM; also: nearly all actives have a fitted effect of over 60% in size
Records with an inconclusive call do not appear. Calls of active or inactive are those of the source. Calls follow the shape of the dose curve; as a rule, active = well fitted inhibition curve with a large enough effect; inconclusive = small, poorly fitted or top-dose-only effect; inactive = flat fitted curve, though single readings scatter.
Classes to choose from: y = active, n = inactive

Challenge: Recorded call for CC1c2ccccc2CN1NC(=O)c1ccc(Cl)c(S(N)(=O)=O)c1 (centres undefined) ?
Response given: n

Challenge: Which outcome was assigned to `Nc1ccc2cc3ccc(N)cc3nc2c1` in this test?
Response given: y

Challenge: Recorded call for `CC(=O)N(CC(=O)N(C)C)c1ccccc1` ?
Response given: n

Challenge: Recorded test call requested for `Cc1coc2ccccc2c1=O`
Response given: n

Challenge: Outcome? `Cc1ccc2ccc(Cl)cc2n1`
Response given: n

Challenge: Recorded call for `C[C@H](CN1CCCC1)C(=O)c1ccc(C(F)(F)F)cc1` ?
Response given: n

Challenge: Dear all, I need the recorded test outcome for `CC(=O)O[C@H]1CC[C@@]2(C)C(=CC[C@@H]3[C@@H]2CC[C@]2(C)C(C(C)=O)=CC[C@@H]32)C1` , thank you.
Response given: n

Challenge: Record request — test call for `C/C(=C1\CCOC(=O)S1)N(C=O)Cc1cnc(C)nc1N`
Response given: n

Challenge: Each compound tested received a call. Report the one for `Cc1c(N)cccc1C(F)(F)F` .
Response given: n

Challenge: # lookup: test call for `CC(=O)[C@@]1(O)CC[C@H]2[C@@H]3C[C@H](C)C4=CC(=O)CC[C@]4(C)[C@H]3CC[C@@]21C`
Response given: n

Challenge: Please share the test call associated with `O=C(O)Cn1c(=O)n(Cc2ccc(Br)cc2F)c(=O)c2ccc(Cl)cc21` .
Response given: n

Challenge: Hi, do you know how `C/C=C(/C(=C/C)c1ccc(OC(C)=O)cc1)c1ccc(OC(C)=O)cc1` came out in this test?
Response given: n

Challenge: Outcome logged for `Cc1oc(=O)oc1COC(=O)[C@@H]1N2C(=O)[C@@H](NC(=O)[C@H](N)c3ccccc3)[C@H]2SC1(C)C` in this assay:
Response given: n

Challenge: Tell me the assay call for `NS(=O)(=O)c1cc2c(cc1Cl)CN(C1CCCCC1)C2=O` please.
Response given: n

Challenge: Short answer needed: outcome of this test for `O=C(O)c1ccc(OCCN2CCCCC2)cc1` ?
Response given: n

Challenge: Can you look up the reported call for CCC(C(=O)NC(=O)NC(C)=O)c1ccccc1 (centres undefined) for me?
Response given: n

Challenge: Please share the test call associated with `Cc1cc(O)c(C)c(C)c1O` .
Response given: n

Challenge: GET /call?item= Cc1ccc(C(C)OC(=O)C2(C)CCC(C(=O)O)C2(C)C)cc1 (centres undefined) returns the recorded outcome of this test.
Response given: n

Challenge: Called result for `O=C(Oc1ccccc1)c1ccccc1O`
Response given: n

Challenge: How was O=C(CS(=O)Cc1ccco1)NC/C=C\COc1cc(CN2CCCCC2)ccn1 (centres undefined) classified in this test?
Response given: n

Challenge: Please share the test call associated with `O=C1NCCN1CCN1CCC(c2cn(-c3ccc(F)cc3)c3ccc(Cl)cc23)CC1` .
Response given: y

Challenge: // return assay outcome for `CCN(CC)CC(=O)OCC(=O)[C@@]1(O)CC[C@H]2[C@@H]3CCC4=CC(=O)CC[C@]4(C)[C@H]3[C@@H](O)C[C@@]21C`
Response given: n

Challenge: What did this assay record as the result for `Oc1ccccc1` ?
Response given: n

Challenge: For this compound, state the assay outcome: `O=C(OCC1(COC(=O)c2cccnc2)CCCC(COC(=O)c2cccnc2)(COC(=O)c2cccnc2)C1O)c1cccnc1`
Response given: n

Challenge: Could you check what this test reported for `CC(C)C(C)(C)C(C)(C)C(C)(C)S` ?
Response given: n

Challenge: # lookup: test call for `O=C(O)[C@H](O)[C@@H](O)[C@H](O[C@@H]1O[C@H](CO)[C@H](O)[C@H](O)[C@H]1O)[C@H](O)CO`
Response given: n

Challenge: Tell me the recorded outcome of this test for `CCCc1ncc(C(=O)O)s1` .
Response given: n

Challenge: Dear colleague, could you share the recorded outcome for `CC(=O)Nc1ccc(S(=O)(=O)Nc2cc(C)on2)cc1` when you have a moment?
Response given: n

Challenge: Could you check what this test reported for `CCOC(=O)c1ccc(NC(=O)CN2CCCCC2)cc1` ?
Response given: n

Challenge: Can you look up the reported call for `Cc1cnc(NS(=O)(=O)c2ccc(N)cc2)nc1` for me?
Response given: n

Challenge: How was `C[C@H]1C[C@H]2[C@@H]3CCC4=CC(=O)C=C[C@]4(C)[C@H]3C(=O)C[C@]2(C)[C@@]1(O)C(=O)CO` classified in this test?
Response given: n

Challenge: For CC(C)(C)C1CCC(CC2=C(O)c3ccccc3C(=O)C2=O)CC1 (centres undefined) , which call appears in the assay record?
Response given: n

Challenge: For `COC(=O)c1ccc(NC(C)=O)cc1OC` , which call appears in the assay record?
Response given: n

Challenge: Please indicate how the test categorized `Oc1ccc(CCNCCCCCCNCCc2ccccc2)cc1O` .
Response given: y
